target: CDK2 (Homo sapiens); construct: endogenous in cells; host or cells: OVCAR3 cells; test: Phospho-RB measurement in OVCAR3 cells (HTRF phospho-RB cellular kit); type: cell-based; conditions: inhibition of RB phosphorylation at S807/811 (HTRF, TR-FRET ratio 665/620), 24 h compound treatment, 0.3 to 10,000 nM
measured property: pIC50
Give bare numbers, as −log10 of the molar value.

Consider `O=S1(=O)CC2(CC(Nc3nccc(-c4sc(C56CC(C5)C6)nc4-c4cccc(NS(=O)(=O)N5CCOCc6ccccc65)c4F)n3)C2)C1` . Its measured pIC50 is 5.48

Consider `CN1CCN(S(=O)(=O)Nc2cccc(-c3nc(C(C)(C)C)sc3-c3ccnc(NC4CCN(S(C)(=O)=O)CC4)n3)c2F)c2ccccc21` . Its measured pIC50 is 6.70

Consider `CC(C)(C)c1nc(-c2cccc(NS(=O)(=O)N3Cc4ccc(C(F)(F)F)cc4C3)c2F)c(-c2ccnc(NC3CCN(S(C)(=O)=O)CC3)n2)s1` . Its measured pIC50 is 5.92

Consider CC(C)(C)c1nc(-c2cccc(NS(=O)(=O)N3CCCCC3c3ccccc3)c2F)c(-c2ccnc(NC3CCN(S(C)(=O)=O)CC3)n2)s1 (stereo not drawn) . Its measured pIC50 is 5.08

Consider `CC(C)(C)c1nc(-c2cccc(NS(=O)(=O)N3CCNc4ccccc4C3)c2F)c(-c2ccnc(NC3CCN(S(C)(=O)=O)CC3)n2)s1` . Its measured pIC50 is 6.55

Pending compound:
Consider `O=S1(=O)CC2(CC(Nc3nccc(-c4sc(C56CC(C5)C6)nc4-c4cccc(NS(=O)(=O)N5CCc6c(F)cc(F)cc65)c4F)n3)C2)C1` . Its measured pIC50 is 7.13

These measurements were taken from patent US20260274833A1.
